Test: qHTS screen for small molecules that induce genotoxicity in human embryonic kidney (HEK293T) cells expressing luciferase-tagged ELG1; note: nearly all actives have a fitted effect of over 60% in size
Conditions: HEK293T ELG1-luciferase reporter, luminescence, 16 h; series mostly up to 46 µM
The campaign covered roughly 330,000 compounds. About 4,200 (1.3%) were called active. Inconclusive results (about 6%) are left out. Calls come from the whole dose curve; as a rule, active = well fitted activation curve with a large enough effect; inconclusive = small, poorly fitted or top-dose-only effect; inactive = no such curve, though single readings can be large or run the other way. For the sample, actives were picked, then their nearest neighbours and some compounds at random.
Permitted responses: yes (1) for active, no (0) for inactive

Answered examples (4):
compound=O=C(CCCOc1ccccc1)NNC(=O)c1ccc(Cl)cc1 answer_label="no (0)"
compound="O=C(COc1ccc(F)cc1Br)NCC1COc2ccccc2O1 (stereo not drawn)" answer_label="no (0)"
compound=COc1ccc(CC(=O)N[C@@H]2c3cc(OC)c(OC)cc3C[C@H]2OCc2ccccc2)cc1 answer_label="no (0)"
compound=COc1ccc(C)cc1NC(=O)CSc1cccc[n+]1[O-] answer_label="no (0)"

input: Entry `Nc1c(-c2ccc(F)cc2)cnc2ncnn12` : call = ?
output: no (0)

input: Entry `CNc1nc(Nc2ccc(C)c(Cl)c2)nc(N)c1[N+](=O)[O-]` : call = ?
output: yes (1)

input: Entry `CC(=O)Nc1cccc(Nc2nc(-c3cccs3)nc3ccccc23)c1` : call = ?
output: no (0)

input: Entry NC(=O)Nc1ccc(C(=O)OCC(=O)NC2CCCc3ccccc32)cc1 (stereo not drawn) : call = ?
output: no (0)

input: Entry `COc1ccc(N=C(C)c2sc3ccccc3c2O)cc1` : call = ?
output: yes (1)

input: Entry Cc1cc(NC(=O)CN2C(=O)NC(CC(C)C)C2=O)no1 (stereo not drawn) : call = ?
output: no (0)

input: Entry `CC(=O)c1sc(NC(=O)C2=NN(c3ccccc3)C(=O)CC2)nc1C` : call = ?
output: no (0)

input: Entry `CC(=O)Nc1cccc(-c2cnc3ccccc3n2)c1` : call = ?
output: yes (1)

input: Entry CC[C@]12c3[nH]c4ccc(OC)cc4c3CCN1C(=O)C(CC(=O)NCc1ccco1)C[C@@H]2C(=O)N1CCN(C(=O)C2CC2)CC1 (stereo partly drawn) : call = ?
output: no (0)

###

Test: qHTS screen for small molecules that induce genotoxicity in human embryonic kidney (HEK293T) cells expressing luciferase-tagged ELG1; note: nearly all actives have a fitted effect of over 60% in size
Details: HEK293T ELG1-luciferase reporter, luminescence, 16 h; series mostly up to 46 µM
In all, about 330,000 compounds went through this assay and about 4,200 (1.3%) were called active. About 6% were inconclusive and are not listed. The call rests on the fitted dose curve; in most records, active means well fitted activation curve with a large enough effect; inconclusive means small, poorly fitted or top-dose-only effect; inactive means no such curve, though single readings can be large or run the other way. The sample holds actives, similar compounds and a random draw of the others, so the mix is not that of the screen.
Permitted responses: active, inactive

Answered examples (5):
compound=O=C(Cn1cnc2c(OCc3ccccc3)ncnc21)NCCCn1ccnc1 answer_label=inactive
compound=O=C(COC(=O)c1ccccc1)Nc1ccccc1Sc1ccccc1 answer_label=inactive
compound=CCOC(=O)c1oc2ccccc2c1NC(=O)c1cccs1 answer_label=inactive
compound=c1csc(-c2cn3c(n2)SCC3)c1 answer_label=inactive
compound="CC(OC(=O)c1ccc(Cl)cc1O)C(=O)NCCC1=CCCCC1 (configuration not stated)" answer_label=inactive

input: Entry `Cc1cccc(-n2ncc3c(N4CCc5ccccc54)ncnc32)c1` : call = ?
output: active

input: Entry `CC(C)N(C(=O)[C@H]1C[C@H](CC(=O)NCCC2=CCCCC2)C(=O)N2CCc3c([nH]c4cc(CCC(=O)N(C)C)ccc34)[C@]12C)C(C)C` : call = ?
output: inactive

input: Entry `CC(=O)c1c(C)[nH]c(C(=O)COC(=O)c2cccs2)c1C` : call = ?
output: inactive

Reference for the values: PubChem BioAssay AID504466
